Target: α1β2γ2 GABAA receptor (Homo sapiens, UniProt P14867+P18507+P47870)
Sequence (P14867 28-456): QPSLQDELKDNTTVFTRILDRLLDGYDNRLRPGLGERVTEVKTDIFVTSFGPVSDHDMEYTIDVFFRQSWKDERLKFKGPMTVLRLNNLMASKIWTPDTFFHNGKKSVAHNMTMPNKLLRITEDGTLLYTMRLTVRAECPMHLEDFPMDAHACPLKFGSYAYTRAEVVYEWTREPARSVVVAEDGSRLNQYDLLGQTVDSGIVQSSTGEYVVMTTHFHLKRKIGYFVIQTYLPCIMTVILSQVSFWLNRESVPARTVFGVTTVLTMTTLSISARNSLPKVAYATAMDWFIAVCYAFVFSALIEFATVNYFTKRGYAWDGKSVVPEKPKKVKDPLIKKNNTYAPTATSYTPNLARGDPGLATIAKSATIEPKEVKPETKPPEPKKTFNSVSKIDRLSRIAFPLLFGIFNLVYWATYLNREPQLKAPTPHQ
Sequence (P47870 25-512 limits assumed): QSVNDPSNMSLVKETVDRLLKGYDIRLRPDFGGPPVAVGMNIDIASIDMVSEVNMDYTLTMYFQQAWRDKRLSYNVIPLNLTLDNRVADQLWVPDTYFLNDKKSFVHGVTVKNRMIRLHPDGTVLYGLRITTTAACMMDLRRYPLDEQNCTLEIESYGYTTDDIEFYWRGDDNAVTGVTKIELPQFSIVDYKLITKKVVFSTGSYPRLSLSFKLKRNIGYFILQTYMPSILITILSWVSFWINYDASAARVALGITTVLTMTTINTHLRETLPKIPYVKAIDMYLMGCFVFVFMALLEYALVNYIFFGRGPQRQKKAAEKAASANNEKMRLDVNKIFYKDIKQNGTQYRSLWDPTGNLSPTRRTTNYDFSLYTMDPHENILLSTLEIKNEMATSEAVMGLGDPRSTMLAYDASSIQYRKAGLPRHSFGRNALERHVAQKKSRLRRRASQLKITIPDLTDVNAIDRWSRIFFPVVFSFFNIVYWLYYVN
Sequence (P18507 40-475): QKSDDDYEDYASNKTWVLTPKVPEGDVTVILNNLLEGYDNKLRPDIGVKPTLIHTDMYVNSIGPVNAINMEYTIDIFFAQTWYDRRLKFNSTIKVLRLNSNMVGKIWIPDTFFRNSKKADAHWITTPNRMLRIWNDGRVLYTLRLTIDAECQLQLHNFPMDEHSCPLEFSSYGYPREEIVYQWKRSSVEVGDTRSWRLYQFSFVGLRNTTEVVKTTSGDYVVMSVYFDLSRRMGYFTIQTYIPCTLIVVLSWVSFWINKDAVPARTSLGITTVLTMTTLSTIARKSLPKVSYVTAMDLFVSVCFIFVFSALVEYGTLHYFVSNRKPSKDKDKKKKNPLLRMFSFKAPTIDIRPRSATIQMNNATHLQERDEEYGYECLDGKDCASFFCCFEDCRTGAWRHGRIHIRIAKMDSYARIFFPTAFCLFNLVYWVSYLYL
Assay: Synergy with diazepam, α1β2γ2 in Ltk cells, isobolographic analysis
Type: cell-based
measurement kind: EC50 (nM)
Your answer should be a plain number; it is taken to be in nM.

Returns the measured EC50 for the input compound. Input: C[C@@]1(O)CC[C@H]2[C@H](CC[C@@H]3[C@@H]2CC[C@]2(C)[C@@H](C(=O)Cn4cc(C#N)cn4)CC[C@@H]32)C1 [zuranolone]
844

###

Experiment: Plasma concentrations in rats designated for pharmacokinetic analysis
Type: in vivo
Conditions: rat, po, 0.3 mg/kg
measurement kind: concentration at 60 min
Reply with the number, then its unit.

Returns the measured concentration at 60 min for the input molecule. Input: C[C@@]1(O)CC[C@H]2[C@H](CC[C@@H]3[C@@H]2CC[C@]2(C)[C@@H](C(=O)Cn4cc(C#N)cn4)CC[C@@H]32)C1 [zuranolone]
22 ng/mL

###

Experiment: Brain and plasma pharmacokinetics after single IP or PO dose
Format: in vivo, mouse
Settings: male, CD-1, mouse, plasma, po, 10 mg/kg
measurement kind: Cmax (ng/mL)
Your answer should be a plain number; it is taken to be in ng/mL.

Returns the measured Cmax for the input compound. Input: C[C@@]1(O)CC[C@H]2[C@H](CC[C@@H]3[C@@H]2CC[C@]2(C)[C@@H](C(=O)Cn4cc(C#N)cn4)CC[C@@H]32)C1
1340

###

Biological target: human recombinant α2β2γ2 GABAA receptor (Homo sapiens, UniProt P47869+P47870)
Sequence (P47869 29-451): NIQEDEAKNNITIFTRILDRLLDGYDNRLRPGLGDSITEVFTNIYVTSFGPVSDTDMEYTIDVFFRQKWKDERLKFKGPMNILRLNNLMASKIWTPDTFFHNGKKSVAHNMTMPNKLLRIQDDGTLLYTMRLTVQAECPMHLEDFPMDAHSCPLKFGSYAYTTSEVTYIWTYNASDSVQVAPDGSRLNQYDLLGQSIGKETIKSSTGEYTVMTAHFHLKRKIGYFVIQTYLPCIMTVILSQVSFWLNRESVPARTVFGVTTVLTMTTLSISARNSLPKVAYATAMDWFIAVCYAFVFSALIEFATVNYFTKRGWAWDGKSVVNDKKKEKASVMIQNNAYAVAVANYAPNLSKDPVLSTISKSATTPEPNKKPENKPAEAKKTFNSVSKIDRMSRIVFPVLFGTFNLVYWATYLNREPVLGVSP
Sequence (P47870 25-512 limits assumed): as the sequence (P47870 25-512 limits assumed) above
Sequence (P18507 40-475 partner): as the sequence (P18507 40-475) above
Assay: Whole cell patch clamp, GABA-evoked currents, α2β2γ2 in Ltk cells
measurement kind: pEC50
Conceptually, pEC50 converts a concentration in mol/L into minus its log10.

Returns the measured pEC50 for the input compound. Input: C[C@@]1(O)CC[C@H]2[C@H](CC[C@@H]3[C@@H]2CC[C@]2(C)[C@@H](C(=O)Cn4cc(C#N)cn4)CC[C@@H]32)C1 [zuranolone]
6.74

###

Biological target: α1β2γ2 GABAA receptor (Homo sapiens, UniProt P14867+P18507+P47870)
Assay: Whole cell patch clamp, GABA-evoked currents, α1β2γ2 in Ltk cells
Type: cell-based
measurement kind: EC50 (nM)
Your answer should be a plain number; it is taken to be in nM.

Returns the measured EC50 for the input compound. Input: C[C@@]1(O)CC[C@H]2[C@H](CC[C@@H]3[C@@H]2CC[C@]2(C)[C@@H](C(=O)Cn4cc(C#N)cn4)CC[C@@H]32)C1 [zuranolone]
430

Sourced from paper PMC8265595
